# Target Of Assay: T1, HLA-A*0201 loaded with the Carcinoembryonic antigen (CEA)-derived … peptide (biotin on the C-terminal biotinylation tag)
# T1 construct: Soluble, biotinylated, immobilised on a streptavidin chip
# Assay: Biacore SPR
Observed Property: Kd

# query: Kd of entry SEQ ID NO 95 (receptor, mutated soluble two domain ILT-2) MGHLPKPTLWAEPGSVITQGSPVTLRCQGGQETQEYRLYREKKTAPWITRIPQELVKKGQFPIPSITWEHAGRYRCQGVSQTAGRSESSDPLELVVTGVYIKPTLSAQPSPVVNSGGNVTLQCDSQVAFDGFILCKEGEDEHPQCLNSQPHARGSSRAIFSVGPVSPSRRWWYRCYAYDSNSPYEWSLPSDLLELLVL ≤ 1000 nM

# query: Kd of entry SEQ ID NO 53 (receptor, mutated soluble two domain ILT-2) MAGHLPKPTLWAEPGSVITMDQPVTLRCQGGQETQEYRLYREKKTAPWITRIPQELVKKGQFPIPSITWEHAGRYRCYYGSDTSQWSASSDPLELVVTGVYIKPTLSAQPSPVVNSGGNVTLQCDSQVAFDGFILCKEGEDEHPQCLNSQPHARGSSRAIFSVGPVSPSRRWWYRCYAYPIWTPYEWTRGSDLLELDVDG ≤ 1000 nM

# query: Kd of entry SEQ ID NO 66 (receptor, mutated soluble two domain ILT-2) MHLPKPTLWAEPGSVITMDQPVTLRCQGGQETQEYRLYREKKTAPWITRIPQELVKKGQFPIPSITWEHAGRYRCYYGSDTSQWSASSDPLELVVTGVYIKPTLSAQPSPVVNSGGNVTLQCDSQVAFDGFILCKEGEDEHPQCLNSQPHARGSSRAIFSVGPVSPSRRWWYRCYAYDSNSPYEWSLPSDLLELDVDG ≤ 1000 nM
